Assay: Body and organ weights of cynomolgus monkeys (Example 45)
Type: in vivo
Conditions: day 57; escalating dose regimen
# body weights listing for each entry below

[
  {
    "Substance": "ISIS 416864: MOE gapmer, nucleobases 1275 to 1318 of SEQ ID NO: 1 (Table 8) (antisense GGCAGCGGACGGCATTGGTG; MOE gapmer, wing and gap sizes not given here)",
    "Unit label": "g",
    "body weights": 3387
  },
  {
    "Substance": "ISIS 417002: MOE gapmer, nucleobases 1275 to 1318 of SEQ ID NO: 1 (Table 8) (antisense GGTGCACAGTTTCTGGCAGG; MOE gapmer, wing and gap sizes not given here)",
    "Unit label": "g",
    "body weights": 2654
  },
  {
    "Substance": "ISIS 416858: MOE gapmer, nucleobases 1275 to 1318 of SEQ ID NO: 1 (Table 8) (antisense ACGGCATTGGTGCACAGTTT; MOE gapmer, wing and gap sizes not given here)",
    "Unit label": "g",
    "body weights": 2617
  },
  {
    "Substance": "ISIS 416850: MOE gapmer, nucleobases 1275 to 1318 of SEQ ID NO: 1 (Table 8) (antisense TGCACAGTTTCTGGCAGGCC; MOE gapmer, wing and gap sizes not given here)",
    "Unit label": "g",
    "body weights": 2629
  },
  {
    "Substance": "ISIS 416838: MOE gapmer, nucleobases 1018 to 1042 of SEQ ID NO: 1 (Table 6) (antisense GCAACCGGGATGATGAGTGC; MOE gapmer, wing and gap sizes not given here)",
    "Unit label": "g",
    "body weights": 2737
  }
]
